assay: BSK_3C_VCAM1: BioMAP Diversity Plus: 3C Assay for Vascular cell adhesion molecule 1 (VCAM1) Biomarker Activity (AID 2282999); settings: BioMAP 3C HUVEC, VCAM1 ELISA, cytokine-stimulated; actives raise or lower the signal
The source made the active and inactive calls. How the source made its calls: active means hit-call score of the fitted dose curve at least 0.9, where 1 is the maximum; inactive means score below 0.9.
Choose the fitting class; nothing outside True = active, False = inactive is accepted.

{"Structure Smiles String": "Cn1cc[nH]c1=S", "Label Class": "False"}
{"Structure Smiles String": "O=C(O)c1cccc(C[C@@H]2COc3ccc(OCc4nc5cc(F)ccc5s4)cc3[C@@H]2O)c1", "Label Class": "False"}
{"Structure Smiles String": "CCOc1ccc2[nH]cc(C(=O)NCc3ccccc3)c(=O)c2n1", "Label Class": "False"}
{"Structure Smiles String": "Nc1ccn([C@@H]2O[C@H](CO)[C@@H](O)[C@@H]2O)c(=O)n1", "Label Class": "False"}
{"Structure Smiles String": "CCCCCCCCN(C)C", "Label Class": "False"}
{"Structure Smiles String": "CCCc1ccccc1", "Label Class": "False"}
{"Structure Smiles String": "OCc1c[nH]c2ccccc12", "Label Class": "False"}
{"Structure Smiles String": "CCCCN1C(=O)[C@@H]([C@H](O)C2CCCCC2)NC(=O)C12CCN(Cc1ccc(Oc3ccc(C(=O)O)cc3)cc1)CC2", "Label Class": "False"}

Let's switch to this molecule now.
Problem: Test call, this molecule: OC(CCl)CCl
Solution: False
